- Test system: RAW264.7
- PROCEDURE_SUMMARY: Cytotoxicity against mouse RAW264.7 cells at 6.25 to 100 uM measured after 24 hrs by MTT assay
- Assay type: cell-based
- CONDITION: raw264.7, 24 h
MEASURE: Activity

SMILES: CC(=O)O[C@@H]1[C@@H](C)/C=C/C(C)(C)C(=O)C[C@@H](OC(C)=O)/C(C)=C/[C@H]2[C@@H](OC(=O)c3ccccc3)[C@H](C)C[C@]12OC(C)=O
RESULT: Non-Toxic
--
SMILES: CC(=O)O[C@@H]1[C@H](C)/C=C/C(C)(C)C(=O)C[C@@H](O)/C(C)=C/[C@H]2[C@@H](OC(=O)c3ccccc3)[C@H](C)C[C@]12OC(C)=O
RESULT: Non-Toxic
--
SMILES: CC(=O)O[C@]12C[C@@H](C)[C@H](OC(=O)c3ccccc3)[C@@H]1/C=C(\C)[C@H](O)CC(=O)C(C)(C)C/C=C(\C)C2=O
RESULT: Non-Toxic
